Provenance of the data: patent US20260317356A1

In this section, each of the compounds is paired with its reported ΔTm at 10 µM.
- Study target: nLucOGG1 in HeLa cells (Homo sapiens)
- Construct: thermal shift read by NanoGlo luminescence
- Sequence (O15527 whole entry): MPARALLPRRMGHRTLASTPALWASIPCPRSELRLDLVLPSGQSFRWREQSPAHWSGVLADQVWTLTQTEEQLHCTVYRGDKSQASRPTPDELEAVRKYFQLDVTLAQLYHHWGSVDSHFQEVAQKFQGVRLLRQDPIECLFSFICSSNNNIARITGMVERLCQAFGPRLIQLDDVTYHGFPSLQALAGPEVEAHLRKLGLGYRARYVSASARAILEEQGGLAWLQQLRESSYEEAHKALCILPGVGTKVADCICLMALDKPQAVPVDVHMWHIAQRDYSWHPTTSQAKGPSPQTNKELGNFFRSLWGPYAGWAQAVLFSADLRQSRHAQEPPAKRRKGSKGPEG
- Experimental protocol: Cellular Thermal Shift Assay to measure compound affinity for nLucOGG1 in HeLa cells (CETSA DTm)
- Format: cell-based
- Reported conditions: 10 μM compound, 37° C. 60 min, Tm vs DMSO control

Look over these answered cases.
COc1ccc(NC(=O)[C@H]2CC[C@@H](N3Cc4c(C)ccnc4NC3=O)CC2)cc1Cl [Example 14]
6 to 8 °C
COc1ccc(NC(=O)[C@H]2CC[C@@H](N3Cc4c(C)cc(NCCN(C)C)cc4C3=O)CC2)cc1Cl [Example 260]
> 10 °C
COc1ccc(NC(=O)[C@H]2CC[C@@H](N3Cc4c(C)ccnc4NC3=O)CC2)cc1C [Example 16]
8 to 10 °C

Alright, here's another compound for you.
// lookup ΔTm at 10 µM for COc1ccc(NC(=O)[C@H]2CC[C@@H](N3Cc4c(C)ccc(OC)c4NC3=O)CC2)cc1C [Example 4]
6 to 8 °C

###

- Study target: hOGG1 (Homo sapiens)
- Experimental protocol: Biochemical fluorescence assay to measure enzymatic activity of hOGG1 (OGG1/APEX IC50)
- Set-up: Protein His-hOGG1 (12-323) was prepared; His (N); host or cells: E. coli
- Reported conditions: 1 nM OGG1+2 nM APEX+6 nM dsDNA (8-oxo-dG substrate); pH 7.5; RT 40 min; read-out: OGG1/APEX IC50
Quantity measured: IC50

Look over these answered cases.
Cc1ccc(NC(=O)[C@H]2CC[C@@H](N3Cc4c(C)cccc4C3=O)CC2)cc1Br
100 to 1000 nM
COc1cc(NC(=O)[C@H]2CC[C@@H](N3Cc4c(C)ccc(CNS(C)(=O)=O)c4NC3=O)CC2)ccc1C
< 100 nM
COc1cc(NC(=O)[C@H]2CC[C@@H](N3Cc4c(C)cc(OCCN(C)C)cc4OC3=O)CC2)ccc1C
100 to 1000 nM
COc1cc(NC(=O)[C@H]2CC[C@@H](N3Cc4c(ccc(OC5CNC5)c4C)NC3=O)CC2)ccc1C
100 to 1000 nM
COc1cc(NC(=O)[C@H]2CC[C@@H](N3Cc4c(Br)cc(NCCN(C)C)cc4C3=O)CC2)ccc1C
< 100 nM
COc1cc(NC(=O)[C@H]2CC[C@@H](N3Cc4c(C)ccc(C#N)c4NC3=O)CC2)ccc1C
< 100 nM
COc1cc(NC(=O)[C@H]2CC[C@@H](N3Cc4c(C)cc(Br)cc4NC3=O)CC2)ccc1C
100 to 1000 nM
Cc1cc(NCCN(C)C)cc2c1CN([C@H]1CC[C@@H](C(=O)Nc3ccc(Cl)c(F)c3)CC1)C2=O
< 100 nM
Cc1cccc2c1CN([C@H]1CC[C@@H](C(=O)Nc3ccc4nc[nH]c4c3)CC1)C2=O
1000 to 10000 nM
COc1cc(NC(=O)[C@H]2CC[C@@H](N3Cc4c(C=O)cccc4C3=O)CC2)ccc1C
1000 to 10000 nM

// lookup IC50 for `COc1ccc(NC(=O)[C@H]2CC[C@@H](N3Cc4c(C)cccc4C3=O)CC2)cc1C`
100 to 1000 nM

Next entry: `CCc1ccc(NC(=O)[C@H]2CC[C@@H](N3Cc4c(C)cccc4C3=O)CC2)cc1C`
1000 to 10000 nM

Next entry: `COc1cc(NC(=O)[C@H]2CC[C@@H](N3Cc4c(ccc(N)c4C)NC3=O)CC2)ccc1C`
1000 to 10000 nM

###

In this section, each of the compounds is paired with its reported pIC50.
- Study target: hOGG1 (Homo sapiens, UniProt O15527)
- Experimental protocol: Biochemical fluorescence assay to measure enzymatic activity of hOGG1 (OGG1/APEX IC50)
- Design: Protein His-hOGG1 (12-323) was prepared; His (N); host or cells: E. coli
- Reported conditions: 1 nM OGG1+2 nM APEX+6 nM dsDNA (8-oxo-dG substrate); pH 7.5; RT 40 min; read-out: OGG1/APEX IC50
pIC50: −log10 of the molar value.

Look over these answered cases.
COc1cc(NC(=O)[C@H]2CC[C@@H](N3Cc4c(C)cc(CNS(C)(=O)=O)cc4NC3=O)CC2)ccc1C
> 7.00
Cc1cccc2c1CN([C@H]1CC[C@@H](C(=O)Nc3ccc4ncccc4c3)CC1)C2=O
5.00 to 6.00
Cc1cccc2c1CN([C@H]1CC[C@@H](C(=O)Nc3ccc(=O)[nH]c3)CC1)C2=O
< 5.00
COc1cc(NC(=O)[C@H]2CC[C@@H](N3Cc4c(C)cc(NCC5(F)CNC5)cc4C3=O)CC2)ccc1C
> 7.00
Cc1cccc2c1CN([C@H]1CC[C@@H](C(=O)Nc3ccc4oncc4c3)CC1)C(=O)N2
5.00 to 6.00
COc1ccc(NC(=O)[C@]2(C)CC[C@@H](N3Cc4c(C)cccc4NC3=O)CC2)cc1Cl (single isomer, unassigned)
5.00 to 6.00

# value lookup — system hOGG1 (Homo sapiens, UniProt O15527), readout pIC50, item `COc1cc(NC(=O)[C@H]2CC[C@@H](N3Cc4ccccc4NC3=O)CC2)ccc1C`
6.00 to 7.00

###

- Study target: UniProt:O15527
- Experimental protocol: Biochemical fluorescence assay to measure enzymatic activity of hOGG1 (OGG1/APEX IC50)
- Design: Protein His-hOGG1 (12-323) was prepared; His (N); host or cells: E. coli
- Reported conditions: 1 nM OGG1+2 nM APEX+6 nM dsDNA (8-oxo-dG substrate); pH 7.5; RT 40 min; read-out: OGG1/APEX IC50
Quantity measured: IC50

Look over these answered cases.
COc1cc(NC(=O)[C@H]2CC[C@@H](N3Cc4c(cccc4C(F)(F)F)C3=O)CC2)ccc1C
1000 to 10000 nM
Cc1ncc(NC(=O)[C@H]2CC[C@@H](N3Cc4c(C)cccc4C3=O)CC2)s1
> 10000 nM
COc1cc(NC(=O)[C@H]2CC[C@@H](N3Cc4c(ccc(OC)c4C)NC3=O)CC2)ccc1C
100 to 1000 nM
COc1cc(NC(=O)[C@H]2CC[C@@H](N3Cc4c(Br)cncc4NC3=O)CC2)ccc1C
< 100 nM
COc1ncc(NC(=O)[C@H]2CC[C@@H](N3Cc4c(C)cccc4C3=O)CC2)cc1C
100 to 1000 nM

# value lookup — system UniProt:O15527, readout IC50, item `COc1cc(NC(=O)[C@H]2CC[C@@H](N3Cc4ccccc4C3=O)CC2)ccc1C`
1000 to 10000 nM

Next entry: COc1cc(NC(=O)[C@H]2[C@@H]3C[C@@H](N4Cc5c(Br)cccc5C4=O)C[C@@H]32)ccc1C (single isomer, unassigned)
> 10000 nM

###

- Study target: hOGG1 (Homo sapiens, UniProt O15527)
- Experimental protocol: Biochemical fluorescence assay to measure enzymatic activity of hOGG1 (OGG1/APEX IC50)
- Set-up: Protein His-hOGG1 (12-323) was prepared; His (N); host or cells: E. coli
- Reported conditions: 1 nM OGG1+2 nM APEX+6 nM dsDNA (8-oxo-dG substrate); pH 7.5; RT 40 min; read-out: OGG1/APEX IC50
In this section, each of the molecules is paired with its reported IC50.

Look over these answered cases.
Cc1ccc(NC(=O)[C@H]2CC[C@@H](N3Cc4c(C)cccc4C3=O)CC2)cc1C#N [Example 254]
0.1 to 1 µM
Cc1cccc2c1CN([C@H]1CC[C@@H](C(=O)Nc3ccn(C)c(=O)c3)CC1)C2=O
> 10 µM
COc1ccc(NC(=O)[C@H]2CC[C@@H](N3Cc4c(C)cccc4C3=O)CC2)c(F)c1
1 to 10 µM
COc1ccc(NC(=O)[C@H]2CC[C@@H](N3Cc4c(C)cccc4C3=O)CC2)cc1F
0.1 to 1 µM
COc1cc(NC(=O)[C@@H]2[C@@H]3C[C@H](N4Cc5c(Br)cccc5C4=O)C[C@@H]32)ccc1C (single isomer, unassigned)
> 10 µM

// lookup IC50 for `CCc1cccc2c1CN([C@H]1CC[C@@H](C(=O)Nc3ccc(C)c(OC)c3)CC1)C2=O`
1 to 10 µM

###

- Study target: hOGG1 (Homo sapiens)
- Experimental protocol: Biochemical fluorescence assay to measure enzymatic activity of hOGG1 (OGG1/APEX IC50)
- Parameters: Protein His-hOGG1 (12-323) was prepared; His (N); host or cells: E. coli
- Reported conditions: 1 nM OGG1+2 nM APEX+6 nM dsDNA (8-oxo-dG substrate); pH 7.5; RT 40 min; read-out: OGG1/APEX IC50
In this section, each of the compounds is paired with its reported IC50.

Look over these answered cases.
COc1cc(NC(=O)[C@H]2CC[C@@H](N3Cc4c(C)cc(C(=O)O)cc4C3=O)CC2)ccc1C [Example 211]
0.1 to 1 µM
Cc1ccc(NC(=O)[C@H]2CC[C@@H](N3Cc4c(C)cccc4C3=O)CC2)cc1C [Example 236]
1 to 10 µM

Alright, here's another compound for you.
// lookup IC50 for COc1cc(NC(=O)[C@H]2CC[C@@H](N3Cc4c(C)cc(CO)cc4NC3=O)CC2)ccc1C [Example 81]
< 0.1 µM
